# Tested on: MAPKAPK2
# measurement conditions: concentration: 1 μM, replicates: in singlicate; n = 1;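 also: KINOMEscan kinase panel screen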
Give measured %Inh for each item. Keep answers brief.
A number alone suffices; assume %.

Requested field: %Inh. Item: O=C(Nc1c(F)cccc1F)c1cc(C(=O)c2ccccc2F)c[nH]1 [GSK1326180] 8

Requested field: %Inh. Item: CN(c1ccc2c(c1)nc(NCc1ccccc1)n2C)c1ccnc(Nc2ccc(CS(C)(=O)=O)cc2)n1.Cl [GW811603] 0

Requested field: %Inh. Item: CCNc1nccc(-c2c(-c3ccc(F)cc3)ncn2C2CCN(C)CC2)n1 0

Requested field: %Inh. Item: O=C(O)C(F)(F)F.O=c1[nH]ccc2nc(N[C@@H]3CCNC3)nc(Nc3ccc4c(c3)S(=O)(=O)CC4)c12 [GSK2181306] 33

Requested field: %Inh. Item: Cc1cccc(Nc2nc(N[C@H]3CCCC[C@H]3N)ncc2C(N)=O)c1.Cl [GSK986310] 19

Requested field: %Inh. Item: N#Cc1cnc2cc(-c3cnc(CNCCN4CCOCC4)s3)ccc2c1Nc1ccc(Oc2ccccc2)cc1 [GW664114] 14

Requested field: %Inh. Item: CC(=O)Nc1cn2nc(Oc3cccc(NC(=O)c4cccc(C(F)(F)F)c4)c3)ccc2n1 0

Requested field: %Inh. Item: COc1ccc(C2=C(Nc3cccc(O)c3)C(=O)NC2=O)cc1 [SB-390766] 0

----------
# Tested on: LZK
# Construct: gene MAP3K13
# measurement conditions: concentration: 1 μM, replicates: in singlicate; n = 1
value kind: %Inh

Lab note: need %Inh for Cn1cc(-c2cnc(N)c3c(-c4ccc5c(c4)CCN5C(=O)Cc4ccccc4)csc23)cn1 on LZK, anyone have it? 0%

Lab note: need %Inh for CC(C)c1nc(-c2cccc(NS(=O)(=O)c3c(F)cccc3F)c2)c(-c2ccnc(Nc3ccc(N4CCOCC4)nc3)n2)s1.Cl on LZK, anyone have it? 52%

Lab note: need %Inh for CCOc1nccc(-c2c(-c3ccc(F)cc3)ncn2C2CCNCC2)n1 on LZK, anyone have it? 3%

Lab note: need %Inh for Cc1ccccc1CC(=O)N1CCc2cc(-c3cn(C)c4ncnc(N)c34)ccc21 on LZK, anyone have it? 0%

Lab note: need %Inh for Cc1nn2c(=O)cc(N3CCO[C@H](C)C3)nc2n1Cc1cccc(Cl)c1Cl on LZK, anyone have it? 0%

Lab note: need %Inh for COc1cc(Nc2ccnc3cc(-c4ccncc4)ccc23)cc(OC)c1OC.Cl on LZK, anyone have it? 31%

----------
# System: CSNK2A1
# measurement conditions: concentration: 1 μM, replicates: in singlicate; n = 1
Give measured %Inh for each item. Keep answers brief.
A number alone suffices; assume %.

Requested field: %Inh. Item: CCNC(=O)/C=C/c1n[nH]c2cc(Sc3ccccc3C(=O)NC)ccc12 24

Requested field: %Inh. Item: NCCC(NC(=O)c1cc(Br)c(-c2ccnc3[nH]ccc23)s1)c1ccccc1.O=C(O)C(F)(F)F.O=C(O)C(F)(F)F (centres unmarked) [GSK1307810] 98.9

Requested field: %Inh. Item: O=C(Nc1n[nH]c2nc(-c3cccc(O)c3)ccc12)C1CC1 [SB-711805] 52

Requested field: %Inh. Item: O=C(Nc1n[nH]c2cc(-c3cccs3)ccc12)C1CC1 [SB-731284] 62

Requested field: %Inh. Item: CS(=O)(=O)c1cccc(CNc2nc(Nc3ccc4c(c3)CCC(=O)N4)ncc2C(F)(F)F)c1 17

Requested field: %Inh. Item: CC(C)(C)c1ccc(C(=O)Nc2cn3cc(-n4ccnc4)ccc3n2)cc1 0

Requested field: %Inh. Item: COc1ccc(C2=C(Nc3cccc(O)c3)C(=O)NC2=O)cc1 [SB-390766] 0

Requested field: %Inh. Item: Cl.Cl.NCC(NC(=O)c1cc(-c2cccnc2)c(-c2ccnc3[nH]ccc23)s1)c1ccccc1 (centres unmarked) [GSK1323434] 32
